Quick reference: TGI of the listed items.
Test system: A549 NSCLC
assay: NCI tumour cell line growth inhibition, 48 h

Query: State its TGI: Cc1cc(C)n(C(=O)C(C)Sc2nnc(SC(C)C(=O)n3nc(C)cc3C)s2)n1 (stereo not given)
Reply: > 100 µM

Query: Return TGI for the following molecule: S=C(NCCCCCCNC(=S)Nc1c2ccccc2nc2ccccc12)Nc1c2ccccc2nc2ccccc12
Reply: > 100 µM

Query: Answer with reported TGI of COc1ccc2c(c1)/C(=C/c1c(-c3ccc(C)cc3)nc3sc(C)cn13)C(=O)N2
Reply: > 100 µM

Query: Kindly indicate its recorded TGI. Item: N#Cc1c(C(N)=O)ncn1Cc1ccccc1
Reply: > 100 µM

Query: Look up and state reported TGI for O=C(n1[nH]c(=O)n(-c2ccc([N+](=O)[O-])cc2)c1=O)C(Cl)(Cl)Cl
Reply: > 75 µM

Query: Quote TGI reported for OC(c1ccc(-c2ccccc2)cc1)(c1ccc(-c2ccccc2)cc1)c1ccc(-c2ccccc2)cc1 please.
Reply: > 100 µM

Query: Please report TGI for the following molecule: O=c1[nH]c2nccn2c(Cl)c1Br
Reply: > 100 µM

Query: Please give measured TGI of the following entry: CC(=O)C1=C(O)C2(O)C(=O)c3c(c(C)c4ccc(C)c(O)c4c3O)CC2C(N)C1=O (stereo not given)
Reply: 11.5 µM

Query: Give reported TGI value for CCOC(=O)CCc1c(C)c2ccc(O)cc2oc1=O
Reply: > 100 µM

Query: Give me measured TGI, please, for this molecule: CC1=Cc2cc3[n-]c(cc4nc(cc5[n-]c(cc1n2)c(C)c5CCC(=O)O)C(CCC(=O)O)=C4C)cc3C.[Cu+2]
Reply: > 100 µM
